System: 5-lipoxygenase
EXPERIMENT DESCRIPTION: Inhibition of the synthesis of LTB4 by the peritoneal PMN of rats in vitro (5-lipoxygenase-inhibiting activity)
Assay type: cell-based, rat
MEASUREMENT PARAMETERS: 4.10^-8 M; rat peritoneal PMN, A23187 10^-6 M
Structures can show the parent of a compound that is named as a salt.
READOUT LABEL: LTB4 % Inhibition

INSERT INTO results (molecule, readout_label, reading) VALUES
  ('O=C1NCC2(CCN(CC(CCc3ccccc3)c3ccc(OCc4ccc5ccccc5n4)cc3)CC2)O1 (racemic) [Example 33]', 'LTB4 % Inhibition', '54%'),
  ('O=C1NCC2(CCN(CC(Cc3ccccc3)c3ccc(OCc4ccc5ccccc5n4)cc3)CC2)O1 (racemic) [Example 32]', 'LTB4 % Inhibition', '24%'),
  ('O=C1NCC2(CCN(CC(c3ccccc3)c3ccc(OCc4ccc5ccccc5n4)cc3)CC2)O1 (racemic) [Example 6]', 'LTB4 % Inhibition', '60%'),
  ('O=C1NCC2(CCN(CC(c3ccc(Cl)cc3)c3ccc(OCc4ccc5ccccc5n4)cc3)CC2)O1 (racemic) [Example 8, dihydrochloride]', 'LTB4 % Inhibition', '85%'),
  ('O=C1NCC2(CCN(C(c3ccc(Cl)cc3)c3ccc(OCc4ccc5ccccc5n4)cc3)CC2)O1 (racemic) [Example 22, dihydrochloride]', 'LTB4 % Inhibition', '76%'),
  ('O=C1NCC2(CCN(CC(Cc3ccc(Cl)cc3)c3ccc(OCc4ccc5ccccc5n4)cc3)CC2)O1 (racemic) [Example 34, hydrochloride]', 'LTB4 % Inhibition', '56%'),
  ('O=C1NCC2(CCN(C(c3ccccc3)c3ccc(OCc4ccc5ccccc5n4)cc3)CC2)O1 (racemic) [Example 24]', 'LTB4 % Inhibition', '56%');
